tested on: MDA-MB-453; experiment: drug sensitivity score (DSS), CellTiter-Glo (DSS (AUC-based score)); higher = stronger drug effect (viability inhibition or cytotoxicity); extreme values may be limits of the assay; settings: incubation time: 72 h
Measurement Label: drug sensitivity score
Give bare numbers.

C[C@]12O[C@H](C[C@]1(O)CO)n1c3ccccc3c3c4c(c5c6ccccc6n2c5c31)CNC4=O = 5.26
Cc1ccc(Nc2nccc(N(C)c3ccc4c(C)n(C)nc4c3)n2)cc1S(N)(=O)=O = 0
O=C(NC[C@H](O)CO)c1ccncc1Nc1ccc(I)cc1F = 0
O=C(Nc1c[nH]nc1-c1nc2ccc(CN3CCOCC3)cc2[nH]1)NC1CC1 = 0
Cn1cc(CNCC2CCN(c3ncc(C(=O)NO)cn3)CC2)c2ccccc21 = 23.3

Next compound, please.
drug sensitivity score reading for CNC(=O)c1cc(Oc2ccc(NC(=O)Nc3ccc(Cl)c(C(F)(F)F)c3)cc2)ccn1 : 0

====

test system: HCC1937; test: drug sensitivity score (DSS), CellTiter-Blue viability (DSS (AUC-based score)); higher = stronger viability inhibition; extreme values may be limits of the assay; details: incubation time: 72 h
Measurement Label: drug sensitivity score
Numbers only.

These solved cases illustrate the format of a correct answer.
CCC/C=C/C=C/C(=O)O[C@H]1/C(=C/C(=O)OC)C[C@H]2C[C@H]([C@@H](C)O)OC(=O)C[C@H](O)C[C@@H]3C[C@H](OC(C)=O)C(C)(C)[C@](O)(C[C@@H]4C/C(=C/C(=O)OC)C[C@H](/C=C/C(C)(C)[C@]1(O)O2)O4)O3 [Bryostatin 1] = 0
O=S(=O)(c1cccc2cnccc12)N1CCCNCC1 [Fasudil] = 0
O=C(Nc1c[nH]nc1-c1nc2ccc(CN3CCOCC3)cc2[nH]1)NC1CC1 [AT9283] = 15.4
Cn1cc(CNCC2CCN(c3ncc(C(=O)NO)cn3)CC2)c2ccccc21 = 16.5

Need drug sensitivity score for each of these compounds.
1. Cc1cccc(-c2nn3c(c2-c2ccnc4ccc(C(N)=O)cc24)CCC3)n1
2. O=C(NC[C@H](O)CO)c1ccncc1Nc1ccc(I)cc1F
3. Nc1cccc2c1CN(C1CCC(=O)NC1=O)C2=O (stereo not drawn) [Lenalidomide]
4. COc1ccc(-c2cc3c(C)nc(N)nc3n([C@H]3CC[C@H](OCCO)CC3)c2=O)cn1

[0, 0, 0, 18.2]

====

test system: DU-4475; experiment: normalised response (% of control), CellTiter-Glo; higher = more viable cells (100 = DMSO, 0 = benzethonium chloride kill control); conditions: incubation time: 72 h
Would you please tag the item yes when its normalised response is 80% or above, and no when it is below?

Below, 2 molecules whose answers are already recorded.
O=C1c2c(O)ccc(O)c2C(=O)c2c(NCCNCCO)ccc(NCCNCCO)c21 [Mitoxantrone] (1000 nM) = no
Cc1c(CN2CCN(C(=O)[C@H](C)O)CC2)sc2c(N3CCOCC3)nc(-c3cnc(N)nc3)nc12 [GDC-0980] (10000 nM) = no

Item CC(=O)OC[C@H]1O[C@@H]([S-])[C@H](OC(C)=O)[C@@H](OC(C)=O)[C@@H]1OC(C)=O.CCP(CC)CC.[Au+] [Auranofin] (2500 nM) with normalised response of 80% or above?
no

Is normalised response at least 80%? Consider CC/C(=C(\c1ccc(O)cc1)c1ccc(OCCN(C)C)cc1)c1ccccc1 [4-hydroxytamoxifen] (10000 nM)
yes

Given O=S(=O)(c1cccc2cnccc12)N1CCCNCC1 [Fasudil] (50000 nM) , state whether its normalised response is at least 80%.
yes

I'd appreciate it if you could say whether Cc1ccc(Nc2nccc(N(C)c3ccc4c(C)n(C)nc4c3)n2)cc1S(N)(=O)=O [Pazopanib] (10000 nM) has normalised response at least equal to 80%.
yes
